# key: entry, value: log10 IC50
- Test system: Rat fibroblasts (CREF)
- assay.name: Peg3 promoter luciferase inhibitors, potency, dose response, cell-based, HeLa, CREF/GAPDH counter-screen panel (AID 624167)
- experimental.conditions: CREF/GAPDH counter-screens, run 1, dose range 1, individual replicate IC50 per panel
reported.endpoint: log10 IC50 (log10 of the value in µM)

smiles.string: CC(=O)Nc1ccc(NC(=O)c2nc(S(=O)(=O)Cc3cccc(C)c3)ncc2Cl)cc1
log10 IC50: 0.65

smiles.string: COc1ccc2c(c1)c(=Cc1ccc(N(C)C)cc1)c1cc(-c3ccccc3)[n+](C)n12
log10 IC50: 1.39

smiles.string: O=C(/C=C\Nc1ccc2c(c1)OCO2)c1ccccn1
log10 IC50: 0.02

smiles.string: COCCn1c(C)cc(C(=O)COC(=O)c2cccc(O)c2)c1C
log10 IC50: -0.33

smiles.string: Cc1ccc2oc(/N=C(\N)NC(=O)C(C)(C)C)nc2c1
log10 IC50: -0.39

smiles.string: CCSc1nc2ccccc2n1C(=O)/C=C\c1ccc(OC)c(OC)c1
log10 IC50: 1.66

smiles.string: O=c1c2ccccc2cnn1-c1nc2ccccc2[nH]1
log10 IC50: -0.32

smiles.string: CS(=O)(=O)c1ccc(-c2cn3cc(C(=O)O)ccc3n2)cc1
log10 IC50: 1.63

smiles.string: Cc1ccc2nc(NC(=O)c3ccccn3)sc2c1
log10 IC50: -0.25

The reported numbers originate from PubChem BioAssay AID624167.
